# assay.summary: Toxicity in iv dosed CD-1 mouse administered qd for 4 days measured on day 5
# Type: organism-based
# conditions: in vivo
Consider the following compounds and their measured NOAEL at 96 h readings.

# smiles.repr, measure.unit, NOAEL at 96 h
records = [
    ("Cc1cc(C(N)=O)ccc1-n1c(CCC(=O)O)ccc1-c1ccc(-n2ccnc2)cc1", "mg/kg", 30),
    ("Cc1cc(C(N)=O)ccc1-n1c(CCC(=O)O)ccc1-c1ccc(Br)cc1", "mg/kg", 50),
    ("COc1ccc(-c2ccc(CCC(=O)O)n2-c2ccc(C(N)=O)cc2C)cc1", "mg/kg", 50),
]

* * *

# assay.summary: Toxicity in po dosed CD-1 mouse administered qd for 4 days measured on day 5
# Format: organism-based
# conditions: in vivo
quantity: NOAEL at 96 h (mg/kg)

# smiles.repr, quantity, quantitative.result
records = [
    ("Cc1cc(C(N)=O)ccc1-n1c(CCC(=O)O)ccc1-c1ccc(-n2ccnc2)cc1", "NOAEL at 96 h", 100),
]

* * *

# assay.summary: Oral bioavailability in BALB/c mouse at 10 mg/kg
# Assay type: ADME, organism-based
# conditions: in vivo

# smiles.repr, bioavailability (%)
records = [
    ("Cc1cc(C(N)=O)ccc1-n1c(CCC(=O)O)ccc1-c1ccc(Cl)cc1", 20.7),
    ("Cc1cc(C(N)=O)ccc1-n1c(CCC(=O)O)ccc1-c1ccc(C#N)cc1", 16.3),
    ("COc1cc(Br)ccc1-c1ccc(CCC(=O)O)n1-c1ccc(C(N)=O)cc1C", 21.8),
    ("COc1cc(Cl)ccc1-c1ccc(CCC(=O)O)n1-c1ccc(C(N)=O)cc1C", 22.4),
    ("Cc1cc(C(N)=O)ccc1-n1c(CCC(=O)O)ccc1-c1ccc(Br)cc1", 18),
    ("Cc1cc(C(N)=O)ccc1-n1c(CCC(=O)O)ccc1-c1ccc(Cl)cc1O", 2.72),
    ("NC(=O)c1ccc(-n2c(CCC(=O)O)ccc2-c2ccccc2)cc1", 86.5),
    ("Cc1cc(C(N)=O)ccc1-n1c(CCC(=O)O)ccc1-c1ccccc1", 46.8),
]

* * *

# assay.summary: Plasma clearance in BALB/c mouse at 2 mg/kg, iv
# Type: ADME, organism-based
# Design: dose 2 mg/kg, route intravenous
Note to self: clearance under 20 mL/min/kg means y, ties and anything higher get n.

# smiles.repr, label.value
records = [
    ("Cc1cc(C(N)=O)ccc1-n1c(CCC(=O)O)ccc1-c1ccccc1", "y"),
    ("COc1cc(Br)ccc1-c1ccc(CCC(=O)O)n1-c1ccc(C(N)=O)cc1C", "n"),
    ("Cc1cc(C(N)=O)ccc1-n1c(CCC(=O)O)ccc1-c1ccc(Cl)cc1O", "n"),
    ("NC(=O)c1ccc(-n2c(CCC(=O)O)ccc2-c2ccccc2)cc1", "y"),
    ("Cc1cc(C(N)=O)ccc1-n1c(CCC(=O)O)ccc1-c1ccc(C#N)cc1", "n"),
    ("Cc1cc(C(N)=O)ccc1-n1c(CCC(=O)O)ccc1-c1ccc(Br)cc1", "n"),
    ("Cc1cc(C(N)=O)ccc1-n1c(CCC(=O)O)ccc1-c1ccc(Cl)cc1", "y"),
]
